Assay: Selectivity ratio of IC50 for human cathepsin B to IC50 for Plasmodium falciparum falcipain-2
Provide the recorded Ratio IC50 for the entries that follow.

Give the measured Ratio IC50 of CN1CCN(Cc2ccc(C(=O)N[C@@H](Cc3cccnc3)C(=O)NC3(C#N)CC3)s2)CC1 . > 192

If you can, please state the reported Ratio IC50 value of N#CC1(NC(=O)[C@H](Cc2cccnc2)NC(=O)c2cccc(-n3cnnn3)c2)CC1 . > 1670

Given the molecule N#CC1(NC(=O)[C@H](Cc2cccnc2)NC(=O)c2cccc(-c3ncc[nH]3)c2)CC1 , what is its reported Ratio IC50? > 1850

Give the measured Ratio IC50 of N#CC1(NC(=O)[C@H](Cc2cccnc2)NC(=O)c2cccc(-c3cn[nH]c3)c2)CC1 . > 4170

Which Ratio IC50 value belongs to CN1CCN(Cc2ccc(C(=O)N[C@@H](Cc3cccnc3)C(=O)NC3(C#N)CCS(=O)(=O)CC3)s2)CC1 ? > 90

Requested read-out: Ratio IC50. Entry: Cn1nc(C(F)(F)F)cc1-c1ccc(C(=O)N[C@@H](Cc2cccnc2)C(=O)NC2(C#N)CC2)s1 > 2270

What does the data say about its Ratio IC50? Entry: N#CC1(NC(=O)[C@H](Cc2cccnc2)NC(=O)c2ccc(-c3ccccc3)cc2)CC1 119

====

Assay: Selectivity ratio of IC50 for human cathepsin S to IC50 for Plasmodium falciparum falcipain-2
Lab note: anything with Ratio IC50 at or over 10 counts as yes; the rest go in no.

Identify whether the reported Ratio IC50 of the following compound is 10 or greater: Cn1nc(C(F)(F)F)cc1-c1ccc(C(=O)N[C@@H](Cc2cccnc2)C(=O)NC2(C#N)CCS(=O)(=O)CC2)s1 no

Does N#CC1(NC(=O)[C@H](Cc2cccnc2)NC(=O)c2ccc(-c3ccccc3)cc2)CC1 have a reported Ratio IC50 of at least 10? yes

Identify whether the reported Ratio IC50 of the following compound is 10 or greater: Cn1nc(C(F)(F)F)cc1-c1ccc(C(=O)N[C@@H](Cc2cccnc2)C(=O)NC2(C#N)CC2)s1 yes

Is the recorded value of Ratio IC50 equal to or greater than 10 for this compound? CN1CCN(Cc2ccc(C(=O)N[C@@H](Cc3cccnc3)C(=O)NC3(C#N)CCS(=O)(=O)CC3)s2)CC1 no

Could you tell me if the measured Ratio IC50 of CS(=O)(=O)c1cccc(-c2cccc(C(=O)N[C@@H](Cc3cccnc3)C(=O)NC3(C#N)CC3)c2)c1 reaches 10 or more? yes

Determine whether this compound has Ratio IC50 no lower than 10: N#CC1(NC(=O)[C@H](Cc2cccnc2)NC(=O)c2cccc(-n3cnnn3)c2)CC1 yes

Check the entry N#CC1(NC(=O)[C@H](Cc2cccnc2)NC(=O)c2cccc(-c3cn[nH]c3)c2)CC1 : does Ratio IC50 equal or exceed 10? yes

====

Assay: Selectivity ratio of IC50 for human cathepsin B to IC50 for Plasmodium falciparum falcipain-2
Assign Ratio IC50 to each entry below.

Recorded Ratio IC50 of CN1CCCC(c2cccc(C(=O)N[C@@H](Cc3cccnc3)C(=O)NC3(C#N)CC3)c2)C1 (some centres undefined) , please. > 581

Fill in: Ratio IC50 of CN1CCN(Cc2ccc(-c3cncc(C(=O)N[C@@H](Cc4cccnc4)C(=O)NC4(C#N)CC4)c3)cc2)CC1 is ___ > 2080

Requested field: Ratio IC50. Item: Cn1nc(C(F)(F)F)cc1-c1ccc(C(=O)N[C@@H](Cc2cccnc2)C(=O)NC2(C#N)CCS(=O)(=O)CC2)s1 > 793

# query: Ratio IC50 of entry CS(=O)(=O)c1cccc(-c2cccc(C(=O)N[C@@H](Cc3cccnc3)C(=O)NC3(C#N)CC3)c2)c1 > 610
